pIC50: −log10 of the molar value.
We begin with pIC50 values for BTK (Homo sapiens, UniProt Q06187), as collected from the published literature.

compound	pIC50
C#CC(=O)N1CC2CC1C(n1nc(-c3cccc(C(=O)Nc4ccc(C(C)C)cc4)c3)c3c(N)ncnc31)C2 (stereo not shown)	7.50
C=CC(=O)N1CCCC[C@H]1C(=O)Nc1cnccc1-c1ccc(CNC(=O)c2noc(C(C)(C)C)n2)c(C)c1	> 9.00
O=C(CNc1cccc2cn[nH]c12)NC1CCCN(c2ncnc3[nH]ccc23)C1 (stereo not shown)	5.00 to 6.00
C=CC(=O)N1CCC[C@@H](n2c(F)c(-c3ccc(Oc4ccccc4)cc3)c3c(N)n[nH]c(=O)c32)C1	6.00 to 8.00
CN(C)C/C=C/C(=O)N(C)c1cccc(-n2c(=O)n(-c3ccc(C(=O)Nc4nc5c(s4)CCCC5)cc3)c3c(N)ncnc32)c1	> 7.00
Cn1cc(-c2cn3nccc3c(-c3ccc(CNC(=O)c4ccn(C(C)(C)C)n4)c(C(F)F)c3)n2)cn1	8.00 to 9.00
O=C(CNc1cc(F)c(F)cc1F)N[C@@H]1CCCN(c2ncnc3[nH]ccc23)C1	6.00 to 7.00
NC(=O)c1nnc2c(-c3ccc4c(c3)CNC4=O)ccc(F)c2c1N	7.40
C=CC(=O)N1C2C[C@@H](C1c1nc(-c3ccc(C(=O)Nc4ccccn4)cc3)c3c(N)nccn13)N(C)C2 (stereo partly shown)	7.76
O=C(CNC1CCCN(c2ncnc3[nH]ccc23)C1)Nc1ccccc1 (stereo not shown)	< 5.00
C=CC(=O)Nc1cccc2c1OCc1[nH]c(=O)c3c(N)n(-c4ccccc4F)nc3c1-2	7.00 to 8.00
C=CC(=O)N1CCC(n2nc(-c3ccc(Oc4ccccc4)cc3)c(C(N)=O)c2N)C1 (stereo not shown)	> 7.00
CC#CC(=O)N1CCC[C@H](Nc2cc(CN3CCOCC3)cc(Nc3ncc(C)s3)n2)C1	8.28
C=CC(=O)N1CC2(CC(Nc3cc(CN4CCOCC4)cc(Nc4ncc(C)s4)n3)C2)C1	7.17
COc1ncc(-c2cnc3[nH]cc(C(=O)c4c(F)ccc(NS(=O)(=O)N(C)C)c4F)c3c2)cn1	≥ 5.00
CN(C)C/C=C/C(=O)Nc1cccc(-n2c(=O)n(-c3ccc(Cl)cc3)c3c(N)ncnc32)c1	> 7.00

====

pIC50: −log10 of the molar value.
We begin with pIC50 values for BTK (Homo sapiens), as collected from the published literature.

molecule	qualifying-sign	pIC50
Cc1cc(-c2nc(C(=O)Nc3cn4cc(CCS(C)(=O)=O)nc4cc3-c3ccccc3)co2)ccn1	=	7.84
C=CS(=O)(=O)N1CCN(c2ccc(C(N)=O)c(-c3ccc(Oc4ccccc4)cc3)n2)CC1	>	6.30
C=CC(=O)N(CCn1nc(-c2cc(O)c(F)c(F)c2)c2c(N)ncnc21)Cc1ccc(Cl)cc1	=	8.57
O=C(CNc1ccc(Cl)cc1)N1CCC[C@H](Nc2ncnc3[nH]ncc23)C1	<	5.00
CC#CC(=O)N1CC2CC1C(n1nc(-c3cccc(C(=O)Nc4ccccc4)c3)c3c(N)ncnc31)C2 (stereo not drawn)	<	6.00
Cc1cnc(NC(=O)c2ccc(-c3nn([C@@H]4CCN(C(=O)/C=C/CN(C)C5CC5)C4)c4ncnc(N)c34)cc2)s1	>	7.00
C=CC(=O)Nc1cccc(-c2cc(-c3ccc(Oc4ccccc4)cc3)cc3cncnc23)c1	>	7.00
CC1CCCC(C)N1S(=O)(=O)c1ccccc1NCC(=O)N[C@@H]1CCCN(c2ncnc3[nH]ncc23)C1 (stereo partly drawn)	>	7.00
C=CC(=O)N1CC2CC1C(n1nc(-c3ccc(C(=O)Nc4cc(F)ccn4)cc3)c3c(N)ncnc31)C2 (stereo not drawn)	=	9.30
NC(=O)c1cnc2[nH]ccc2c1NC1CCCN(C(=O)CNc2cc(F)cc(Cl)c2)C1 (stereo not drawn)	>	7.00
O=C(CNc1cc(Cl)cc(C(F)(F)F)c1)N1CCCC(Nc2ncnc3[nH]ccc23)C1C(F)(F)F (stereo not drawn)	>	7.00
O=C(O)/C=C/c1cccc(-c2cnc3[nH]cc(C(=O)c4ccccc4F)c3c2)c1	≥	5.00
CCc1ccc2c(N)c(C(N)=O)nnc2c1-c1ccc2[nH]ncc2c1	=	8.30
N#CC(=CC1CC1)C(=O)N1C[C@@H]2C[C@@H]1[C@@H](n1nc(-c3ccc(C(=O)Nc4ccccn4)cc3F)c3c(N)ncnc31)C2	=	8.44
CC(C)(C)c1cc(F)c2c(=O)n(-c3cccc(-n4cc(C(N)=O)c5ccc(C(O)CO)nc54)c3CO)ncc2c1 (stereo not drawn)	=	7.86

====

We begin with IC50 values for BTK (Homo sapiens), as collected from the published literature.
endpoint-name: IC50

molecule	endpoint-name	result
C[C@@H](O)[C@@H](Nc1cc(F)cc(Cl)c1)C(=O)N[C@H]1CN(c2ncnc3[nH]ncc23)CC[C@@H]1C	IC50	< 0.1 µM
CC1CCN(S(=O)(=O)c2ccccc2NCC(=O)N[C@@H]2CCCN(c3ncnc4[nH]ncc34)C2)CC1	IC50	< 0.1 µM
CC(C)N1Cc2c(ccc(F)c2Cl)OCCNC(=O)c2cnn3ccc1nc23	IC50	0.00554 µM
CN1CC(n2cc(Nc3nccc(-c4ccc(CNC(=O)c5cnn(C(C)(C)C)c5)c(Cl)c4)n3)cn2)C1	IC50	< 0.01 µM
C=CC(=O)N1CCC[C@@H](n2nc(-c3ccc(Oc4ccccc4)cc3)c3cncc(F)c32)C1	IC50	< 0.1 µM
O=C(CNC(=O)c1cccc2ccccc12)NC1CCCN(c2ncnc3[nH]ccc23)C1 (stereo not drawn)	IC50	0.1 to 0.999 µM
Cc1cc(-c2nc(Nc3cnn(C)c3)ncc2F)ccc1CNC(=O)c1cnc(C(C)(C)C)s1	IC50	< 0.01 µM
CC(C)(C)c1nc(C(=O)NCc2ccc(-c3nc(N4CCC4)cn4nccc34)cc2)no1	IC50	0.001 to 0.01 µM
CN(C)S(=O)(=O)Nc1ccc(F)c(C(=O)c2c[nH]c3ncccc23)c1	IC50	≤ 10 µM
CN(C)C/C=C/C(=O)N(C)c1cccc(-n2c(=O)n(-c3ccc(C(=O)Nc4nc5ccccc5s4)cc3)c3c(N)ncnc32)c1	IC50	< 0.1 µM
C=CC(=O)Nc1cccc(Oc2nc(Nc3ccc(N4CCC(C(=O)O)CC4)cc3)nc3ccsc23)c1	IC50	0.05 to 0.1 µM
C=CC(=O)N1CC[C@]2(C1)C[C@H](n1c(NC(=O)c3ccc(-c4cnco4)cc3)nc3cc(CN[C@@H](C)C(C)(C)C)ccc31)C2	IC50	0.00567 µM
CC#CC(=O)N1CCC(C2CCNn3c2nc(-c2ccc(Oc4ccccc4)cc2)c3C(N)=O)CC1 (stereo not drawn)	IC50	0.0764 µM
CCCC1CN(C(=O)NCc2ccc(-c3ccnc(Nc4cnn(C)c4)n3)cc2C)C1	IC50	< 0.01 µM
CC#CC(=O)N1CCC[C@H]1c1nc(-c2ccc(C(=O)Nc3ccccn3)c(C)c2)c2c(N)nccn12	IC50	0.05 µM

====

pIC50: −log10 of the molar value.
We begin with pIC50 values for BTK (Homo sapiens), as collected from the published literature.

molecule	pIC50
C=CC(=O)N1CC[C@@H]1Cn1nc(-c2ccc(Oc3ccccc3)cc2)c2cncnc21	> 7.00
C=CC(=O)N1CC[C@]2(C1)C[C@H](n1c(NC(=O)c3ccc(Oc4ccccc4)nc3)nc3ccccc31)C2	7.95
C=CC(=O)Nc1cccc2c1OCc1[nH]c(=O)c3c(N)n(-c4cc(O)ccc4C)nc3c1-2	> 8.00
CC1C(Nc2ncnc3[nH]ccc23)CCCN1C(=O)CNc1cc(Cl)cc(C(F)(F)F)c1 (stereo not drawn)	> 7.00
C=CC(=O)Nc1cccc(Oc2c(Cl)cnc3[nH]c(-c4ccc(CN(C)C)cc4)nc23)c1	≥ 7.30
N#Cc1cnc2[nH]cc(C(=O)c3cccc(NS(=O)(=O)CC(F)(F)F)c3F)c2c1	≥ 5.00
CCC#CC(=O)N1CC2(CC(n3nc(-c4ccc(Oc5ccccc5)cc4)c4cncnc43)C2)C1	6.30 to 7.00
Cc1cc(-c2ncnc3[nH]ncc23)ccc1C(C)NC(=O)c1cc2c(s1)CCCC2 (stereo not drawn)	> 8.00
C[C@H]1Nc2ccn3ncc(c3n2)C(=O)NCCOc2c(-c3cnn(C)c3)cc(F)cc21	6.32
CN(C)C/C=C/C(=O)N1CCC[C@@H](n2cc(-c3ccc(Oc4ccccc4Cl)cc3)c3c(N)n[nH]c(=O)c32)C1	≥ 8.00
Nc1cc(N2CCC3CCN(C(=O)CNc4cc(Cl)cc(Cl)c4)CC32)ncn1 (stereo not drawn)	> 7.00
COc1ccc(-n2c(=O)n(-c3ccc(Oc4ccccc4)cc3)c3c(N)ncnc32)cc1N(C)C(=O)/C=C/CN(C)C1CC1	> 7.00
CCN(CC)CC(=O)N1CCC(c2c(CCCN3CCCC3)c(-c3ccc(Oc4ccc(Cl)c(Cl)c4)c(OC)c3)c3c(N)ncnn23)CC1	7.80
CC#CC(=O)N1CC2(CC2)C[C@H]1c1nc(-c2ccc(Oc3ccccc3)cc2)c2c(N)nccn12	8.37
CCn1cc(Nc2nccc(-c3ccc(CNC(=O)N4CCC(C(C)(C)C)C4)c(C)c3)n2)cn1 (stereo not drawn)	> 8.00
